- test_method_notes: chemical genetic growth profiling, strain panel (AID 1159580);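 also: tested at 20 µM; growth read once vehicle control cultures reached saturation at 30 °C; 1 = growth at the plate median or of vehicle wells; lower values mean less growth of the strain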
- reported_conditions: S. cerevisiae deletion strains, growth OD, locus YOR270C, strain vph1, stronger effect = lower value
The whole screen tested about 5,500 compounds, of which about 2,000 (36%) were called active. Roughly 18% stayed inconclusive and do not appear here. Some of the results follow.
Rule: measured normalized growth below 1 gets label 1; anything equal to or greater than 1 gets label 0.

Enquiry: State whether 1 exceeds normalized growth recorded for C[C@]12CCC(=O)C=C1C=CC1C2CC[C@@]2(C)C1CC[C@@]2(O)CCC(=O)O (some centres not stated) .
Return: label 0

Enquiry: Consider Nc1nc(=S)c2[nH]cnc2[nH]1 . Does its normalized growth lie strictly below 1?
Return: label 0

Enquiry: Just wondering, is normalized growth of C[C@H]1COc2c(N3CCN(C)CC3)c(F)cc3c(=O)c(C(=O)O)cn1c23 below 1?
Return: label 0
